Experiment: Cytotoxicity against mouse peritoneal macrophages assessed as LDH release at 50 uM after 48 hrs
Type: cell-based
Settings: peritoneal macrophage cell
A collection of compounds and their measured Activity
reported property: Activity (%)

compound	reported value
C=C(C(=O)OC)C(O)c1cccnc1 (stereo not drawn)	13.2
C=C(C(=O)OC)C(O)c1ccc(F)cc1 (stereo not drawn)	0
C=C(C(=O)OC)C(O)c1ccccc1 (stereo not drawn)	0
